test system: P388 leukemia ip, CD2F1 mice, survival T/C; assay: NCI In Vivo Anticancer Drug Screen. Data for tumor model P388 Leukemia (intraperitoneal) in CD2F1 (CDF1) mice; settings: endpoint: median survival time; dose: 25.0 mg/kg/injection; schedule: Q01DX009 (ip); vehicle: other; higher = longer survival
Inconclusive results and toxic doses are left out.

[
  {
    "SMILES_NOTATION": "N=C(N)c1nc2ccccc2s1",
    "T/C": "104 % of control"
  },
  {
    "SMILES_NOTATION": "COc1cc2c(cc1OC)C(=O)c1ncccc1C2=O",
    "T/C": "100 % of control"
  },
  {
    "SMILES_NOTATION": "CCCCCCCCCCCCCCCC(=O)N(CC#CCN(CCCN(C)C)C(=O)CCCCCCCCCCCCCCC)CCCN(C)C",
    "T/C": "95 % of control"
  },
  {
    "SMILES_NOTATION": "NNc1ccc2cccc([N+](=O)[O-])c2n1",
    "T/C": "106 % of control"
  },
  {
    "SMILES_NOTATION": "Cc1cccc(NC(N)=S)n1",
    "T/C": "98 % of control"
  },
  {
    "SMILES_NOTATION": "COc1ccc(C(Cl)c2ccc(OC)c(OC)c2)cc1OC",
    "T/C": "100 % of control"
  },
  {
    "SMILES_NOTATION": "O=NC=C1N(O)C=CN1O",
    "T/C": "102 % of control"
  },
  {
    "SMILES_NOTATION": "CON(Cc1ccc(C(=O)NC(C)C)cc1)Cc1ccc(C(=O)NC(C)C)cc1",
    "T/C": "94 % of control"
  },
  {
    "SMILES_NOTATION": "COC(=O)C1=NNC(C(=O)OC)=NN1",
    "T/C": "87 % of control"
  }
]

====

system: P388 leukemia ip, CD2F1 mice, survival T/C; experiment: NCI In Vivo Anticancer Drug Screen. Data for tumor model P388 Leukemia (intraperitoneal) in CD2F1 (CDF1) mice; conditions: endpoint: median survival time; dose: 100.0 mg/kg/injection; schedule: Q01DX009 (ip); vehicle: saline; higher = longer survival
Inconclusive results and toxic doses are left out.
PROPERTY: T/C

[
  {
    "COMPOUND": "CC1=NN(c2ccc(S(=O)(=O)O)cc2)C(=O)C1N=Nc1ccc(-c2ccc(N=Nc3ccc(OS(=O)(=O)c4ccc(C)cc4)cc3)c(S(=O)(=O)O)c2)cc1 (configuration not stated)",
    "PROPERTY": "T/C",
    "OBSERVED_MEASUREMENT": "100 % of control"
  },
  {
    "COMPOUND": "CC(C)(CO)[C@@H](O)C(=O)NCCC(=O)O",
    "PROPERTY": "T/C",
    "OBSERVED_MEASUREMENT": "113 % of control"
  },
  {
    "COMPOUND": "N#C/C(=C\\c1ccccc1Cl)C(N)=S",
    "PROPERTY": "T/C",
    "OBSERVED_MEASUREMENT": "101 % of control"
  },
  {
    "COMPOUND": "O=C(O)C1CSC(c2cccnc2)N1 (configuration not stated)",
    "PROPERTY": "T/C",
    "OBSERVED_MEASUREMENT": "90 % of control"
  },
  {
    "COMPOUND": "CCCCCCCCCCCCCCCCCC1=NC(C)CC(C)(C)O1 (configuration not stated)",
    "PROPERTY": "T/C",
    "OBSERVED_MEASUREMENT": "95 % of control"
  },
  {
    "COMPOUND": "c1ccc(Cc2cc(-c3ccccc3)[nH]c2-c2ccccc2)cc1",
    "PROPERTY": "T/C",
    "OBSERVED_MEASUREMENT": "104 % of control"
  },
  {
    "COMPOUND": "CCCCCCCCCC(=O)c1ccc(O)c(O)c1O",
    "PROPERTY": "T/C",
    "OBSERVED_MEASUREMENT": "100 % of control"
  },
  {
    "COMPOUND": "CC(C)(C)OC(=O)NC(CC(=O)O)C(=O)O (configuration not stated)",
    "PROPERTY": "T/C",
    "OBSERVED_MEASUREMENT": "93 % of control"
  },
  {
    "COMPOUND": "C[P+]12CN3CN(CN(C3)C1)C2",
    "PROPERTY": "T/C",
    "OBSERVED_MEASUREMENT": "107 % of control"
  },
  {
    "COMPOUND": "O=C(N/N=C/c1ccccc1O)c1cccc([N+](=O)[O-])c1",
    "PROPERTY": "T/C",
    "OBSERVED_MEASUREMENT": "99 % of control"
  },
  {
    "COMPOUND": "C1CN(P2(N3CC3)=NP(N3CC3)(N3CC3)=NP(N3CC3)(N3CC3)=N2)CCO1 (configuration not stated)",
    "PROPERTY": "T/C",
    "OBSERVED_MEASUREMENT": "86 % of control"
  },
  {
    "COMPOUND": "N#CCCP(=O)(O)CO",
    "PROPERTY": "T/C",
    "OBSERVED_MEASUREMENT": "100 % of control"
  }
]

Provenance of the data: PubChem BioAssay AID330
